observation type: melting point

Data request: Param item = Cc1noc(NS(=O)(=O)c2ccc(-c3ccc4c(c3)OCO4)cc2)c1Br ; retrieve measured melting point.
Data returned: 172 to 174 °C

Data request: Reported melting point, molecule C=COCCN1C(=O)CN(c2ccccc2)C1=O : ____
Data returned: 119 to 120 °C

Data request: Entry CCCCCCCC[C@H](N[C@@H](C)C(=O)N1C(=O)N(C)C[C@H]1C(=O)O)C(=O)OCC has what melting point?
Data returned: 85 to 86 °C

Data request: Which value of melting point has been reported for CNC(=O)c1cccc(-c2cccc3cc(Cc4cccc(C(F)(F)F)c4)sc23)c1 in the records?
Data returned: 104 to 106 °C

Data request: Looking for the measured melting point of CCOP(=O)(Cc1ccc(C(=O)Nc2ccc(Br)cc2C#N)cc1)OCC , can you help?
Data returned: 165 to 166 °C

Data request: // melting point lookup, key: COc1cc(Nc2c(C#N)cnc3cc(/C=C/n4nccn4)sc23)c(Cl)cc1Cl
Data returned: 315 to 316 °C

Data request: Fill blank: measured melting point of the molecule COc1ccc(S(=O)(=O)N(CCC(=O)N2CCC(C(=O)O)CC2)C(CC(C)C)C(=O)NO)cc1 (centres undefined) is ____.
Data returned: 118 to 120 °C

Data request: Bench note: what melting point did CCP(=O)(O)c1cc(Oc2ccc(C(F)(F)F)cc2Cl)ccc1[N+](=O)[O-] show?
Data returned: 99 °C

Data request: What value of measured melting point is listed for CCCCc1nc(C(C)O)c(C(=O)OCC)[nH]1 (centres undefined) ?
Data returned: 149 °C
